Target: T1, EsCas13d, nuclease-dead (Eubacterium siraeum, UniProt B0MS50, R295A;H300A;R849A;H854A)
T1 sequence: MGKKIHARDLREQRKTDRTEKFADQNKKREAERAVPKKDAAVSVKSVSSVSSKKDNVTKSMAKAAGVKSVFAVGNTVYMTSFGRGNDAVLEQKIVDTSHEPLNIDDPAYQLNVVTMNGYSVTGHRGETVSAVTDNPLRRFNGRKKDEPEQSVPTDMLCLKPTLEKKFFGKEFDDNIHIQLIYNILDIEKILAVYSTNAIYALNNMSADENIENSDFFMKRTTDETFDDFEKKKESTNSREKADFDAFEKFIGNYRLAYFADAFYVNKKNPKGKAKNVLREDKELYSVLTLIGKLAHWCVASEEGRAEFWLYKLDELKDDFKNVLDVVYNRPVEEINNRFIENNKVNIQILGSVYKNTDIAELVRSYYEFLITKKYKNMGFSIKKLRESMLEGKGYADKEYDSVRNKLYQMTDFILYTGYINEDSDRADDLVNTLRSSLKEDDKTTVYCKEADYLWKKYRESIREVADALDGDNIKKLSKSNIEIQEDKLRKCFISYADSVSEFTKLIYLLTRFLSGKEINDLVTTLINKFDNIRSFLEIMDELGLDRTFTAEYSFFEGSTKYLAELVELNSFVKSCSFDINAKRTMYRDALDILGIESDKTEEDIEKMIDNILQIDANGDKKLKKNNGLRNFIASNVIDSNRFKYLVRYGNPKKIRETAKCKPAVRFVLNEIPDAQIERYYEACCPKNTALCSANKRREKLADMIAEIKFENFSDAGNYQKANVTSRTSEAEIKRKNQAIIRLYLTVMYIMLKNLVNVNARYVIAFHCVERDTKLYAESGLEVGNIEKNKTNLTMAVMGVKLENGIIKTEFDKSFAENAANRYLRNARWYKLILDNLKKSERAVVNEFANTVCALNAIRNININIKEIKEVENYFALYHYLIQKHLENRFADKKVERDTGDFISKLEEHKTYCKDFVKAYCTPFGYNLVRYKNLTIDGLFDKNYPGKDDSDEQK
Assay: crRNA (strand 1, pre-loaded); Mg2+; 40 mM Tris-HCl pH 7.5, 150 mM NaCl, 6 mM MgCl2, 1 mM DTT, 0.1% Tween-20, 0.2 mg/ml BSA; 25 C; 10 min per concentration, then washed
Settings: tags: His6-TwinStrep-SUMO cleaved; N-terminal SNAP kept (SNAP-Surface 488); label: 3' end held by stalled T7 RNA polymerase
measure: Kd (nM)
Provide only the numeric value, understood in nM.

Field request: Kd | item: target 1 insA 3' of 4,insU 3' of 4 (mixed) RNA 1: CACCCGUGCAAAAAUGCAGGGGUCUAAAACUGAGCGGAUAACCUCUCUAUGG RNA 2: GGGAAUGGAUCCACAUCUACGAAUUCGUACCAUAGAGAGGUUAUCCGCAUUCACCGAGAUCGGAAGAGCACACGU 12.4
